system: HL-60(TB) leukemia; test: NCI-60 one-dose screen, 48 h; details: 10 µM unless noted
Compounds without any hit were thinned out: in the full panel of roughly 83,000, 20% have a hit. The source made the active and inactive calls. Rule for the calls: active = growth percent below 10; inactive = the rest.
Outcomes: yes (1) for active, no (0) for inactive

Molecule	System	Assigned label
N#C/C(=C\c1ccc(C(F)(F)F)cc1)c1cc2ccccc2[nH]1	HL-60(TB) leukemia	no (0)
CC(O)CN(CCO)CCN(CCO)CC(C)O (centres undefined)	HL-60(TB) leukemia	no (0)
Oc1c(Br)cc(Br)cc1Br.[Cu+2]	HL-60(TB) leukemia	no (0)
O=C1c2cc3c(cc2-c2c1c1cc(Cl)c(Cl)cc1c(=O)n2CCCn1ccnc1)OCO3	HL-60(TB) leukemia	yes (1)
C=C1C(=O)O[C@H]2[C@H]1CC/C(COC(=O)NCc1cc(OC)c(OC)c(OC)c1)=C\CC[C@@]1(C)O[C@@H]21	HL-60(TB) leukemia	no (0)
CNC(=O)c1cc(Oc2ccc3nc(NC(=O)c4ccc5ncccc5c4)sc3c2)ccn1	HL-60(TB) leukemia	no (0)
CCCCCCCCn1ccc2cc(NC(=O)Cn3cc(CN4CCC(C)CC4)nn3)ccc21	HL-60(TB) leukemia	yes (1)
CCN1C(=O)/C(=c2\sc3n(c2=O)NC2C(N=3)N(CC)C(=O)N2CC)c2ccccc21 (centres undefined)	HL-60(TB) leukemia	yes (1)
CCC1(c2ccccc2)Oc2ccccc2-n2c(C#N)c3ccccc3c2C1=O (centres undefined)	HL-60(TB) leukemia	no (0)
C=C(C)[C@@H]1C[C@H](O)Cc2cc(Cl)cc(Cl)c2N1	HL-60(TB) leukemia	no (0)
CO[C@H]1C[C@@H]2CC[C@@H](C)[C@@](O)(O2)C(=O)C(=O)N2CCCC[C@H]2C(=O)O[C@H]([C@H](C)C[C@@H]2CC[C@@H](OCCO)[C@H](OC)C2)CC(=O)[C@H](C)/C=C(\C)[C@@H](O)[C@H](OC)C(=O)[C@H](C)C[C@H](C)\C=C/C=C/C=C/1C	HL-60(TB) leukemia	no (0)
O=C1Nc2ccc(F)cc2C12Nc1cc(Cl)ccc1S2 (centres undefined)	HL-60(TB) leukemia	no (0)
O=C(/C=C/C12c3ccccc3C(c3ccccc31)C1C(=O)NC(=O)C12)c1ccco1 (centres undefined)	HL-60(TB) leukemia	yes (1)
COc1ccc(C2CC(n3ccnc3)c3cc(OC)c(OC)c(OC)c32)cc1O (centres undefined)	HL-60(TB) leukemia	no (0)
c1ccc(-c2oc(-c3ccccc3)c3ccccc23)cc1	HL-60(TB) leukemia	no (0)
CN1CCN(Cc2ccc(NC(=O)c3[nH]ncc3Nc3ccnc4ccsc34)cc2)CC1	HL-60(TB) leukemia	yes (1)
Cc1c(C(=O)N[C@H](CO)Cc2ccccc2)[nH]c2ccc(Cl)cc2c1=O	HL-60(TB) leukemia	no (0)
COc1ccc2nc(-c3c(-c4ccccc4)nc4ncccn34)[nH]c2c1	HL-60(TB) leukemia	no (0)
CNC(=O)c1cc(Oc2ccc(NC(=O)c3nc(S(C)(=O)=O)sc3-c3ccc(F)cc3)cc2)ccn1	HL-60(TB) leukemia	no (0)

====

# growth annotations
tested on: SK-OV-3 ovarian; assay: NCI-60 one-dose screen, 48 h (100 = growth as untreated, 0 = no growth, -100 = all killed); settings: 10 µM unless noted
This is part of a sample that, as a whole, favours compounds with a hit. Of some 83,000 tested, about 20% had one in any assay.
Recorded metric: growth (%)

                                   compound  recorded_metric  unit_symbol  result_value
0  COc1ccc(C2SCC(=O)Nc3c2c(C)nn3-c2nc3ccc(C)cc3s2)cc1O (stereo not given)           growth            %          44.2
1        O=C(O)c1nn(Cc2ccc(Cl)cc2)c2ccccc12           growth            %           113
2  CC1([N+](=O)[O-])COP(=O)(Nc2ccc(F)cc2)OC1 (stereo not given)           growth            %           101
3               COP(=S)(OC)Oc1ccc(SC)c(C)c1           growth            %           100
4  CC1(C)N=C(N)N=C(N)N1c1ccc(CNC(=O)Nc2ccc(S(=O)(=O)F)c(Cl)c2)c(Cl)c1           growth            %          42.9
5  Cc1ccc(C[As+](c2ccccc2)(c2ccccc2)c2ccccc2)cc1           growth            %         -4.76
6  C[C@]12CC[C@@H]3c4ccc(OC(=O)Cc5ccc(N(CCCl)CCCl)cc5)cc4CC[C@H]3[C@@H]1CC[C@@H]2OC(=O)Cc1ccc(N(CCCl)CCCl)cc1           growth            %           126
7  O=S(=O)(O)c1ccc(-c2ccc([As](=O)(O)O)cc2)cc1           growth            %           105
8  COc1ccc(/C=C\c2cc(OC)c(OC)c(OC)c2)cc1N/C=C\C(=O)c1c[nH]c2ccccc12           growth            %          12.9
9                   CC(=O)[O][Hg][c]1ccccc1           growth            %         -5.18

These data points were gathered from PubChem BioAssay (NCI).
